Target: cyclodextrinase (Lysinibacillus sphaericus, UniProt Q08341)
Construct: is cultured in a medium to yield and accumulate said cyclodextrinase, and this enzyme is collected from the culture; made in house; host or cells: Bacillus sphaericus E-244 (FERM BP-2458), the natural wild-type producer strain; not recombinant
Sequence (Q08341 1-591): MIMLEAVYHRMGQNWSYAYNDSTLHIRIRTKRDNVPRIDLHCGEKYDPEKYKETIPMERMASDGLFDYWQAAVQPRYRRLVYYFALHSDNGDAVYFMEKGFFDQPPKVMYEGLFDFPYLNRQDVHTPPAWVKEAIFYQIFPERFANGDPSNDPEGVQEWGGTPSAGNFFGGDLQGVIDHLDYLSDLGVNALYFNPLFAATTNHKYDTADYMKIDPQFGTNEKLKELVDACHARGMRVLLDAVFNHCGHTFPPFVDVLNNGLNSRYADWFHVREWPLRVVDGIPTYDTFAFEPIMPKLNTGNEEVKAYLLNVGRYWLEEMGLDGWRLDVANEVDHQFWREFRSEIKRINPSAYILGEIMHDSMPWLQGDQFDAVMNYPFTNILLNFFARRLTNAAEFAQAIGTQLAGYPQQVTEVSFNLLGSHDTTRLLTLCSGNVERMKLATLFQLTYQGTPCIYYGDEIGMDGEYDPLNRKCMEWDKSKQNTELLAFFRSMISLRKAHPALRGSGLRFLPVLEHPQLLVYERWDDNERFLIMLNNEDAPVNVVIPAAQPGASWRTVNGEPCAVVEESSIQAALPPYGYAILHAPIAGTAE
Test: Reaction rate parameters of the present enzyme for cyclodextrins and maltooligosaccharides
Format: biochemical, Bacillus sphaericus
Settings: Vmax/Km relative to β-cyclodextrin = 1.00

# Molecule, Tgt, Relative value
records = [
    ("OC[C@H]1O[C@@H]2O[C@H]3[C@H](O)[C@@H](O)[C@@H](O[C@H]4[C@H](O)[C@@H](O)[C@@H](O[C@H]5[C@H](O)[C@@H](O)[C@@H](O[C@H]6[C@H](O)[C@@H](O)[C@@H](O[C@H]7[C@H](O)[C@@H](O)[C@@H](O[C@H]1[C@H](O)[C@H]2O)O[C@@H]7CO)O[C@@H]6CO)O[C@@H]5CO)O[C@@H]4CO)O[C@@H]3CO [α-cyclodextrin]", "cyclodextrinase (Lysinibacillus sphaericus, UniProt Q08341)", 0.36),
    ("OC[C@H]1O[C@H](O[C@H]2[C@H](O)[C@@H](O)[C@@H](O[C@H]3[C@H](O)[C@@H](O)[C@@H](O[C@H]4[C@H](O)[C@@H](O)[C@@H](O[C@H]5[C@H](O)[C@@H](O)[C@@H](O[C@H]6[C@H](O)[C@@H](O)C(O)O[C@@H]6CO)O[C@@H]5CO)O[C@@H]4CO)O[C@@H]3CO)O[C@@H]2CO)[C@H](O)[C@@H](O)[C@@H]1O (some centres unmarked) [Maltohexaose]", "cyclodextrinase (Lysinibacillus sphaericus, UniProt Q08341)", 0.23),
]
